assay: small-molecule binders of probe aNOTCH3, primary screen, biochemical, small-molecule microarray, 635/667 nm fluorescence (AID 1120); conditions: higher = more signal;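 also: probe is a biotin-tagged antibody raised against NOTCH3 rather than NOTCH3 protein; score merges spot fluorescence near 667 nm with spot signal to noise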
property_measured: composite z-score

# compound, composite z-score
rows = [
    ("C=CCOC(=O)[C@@H]1[C@H]2C(=O)O[C@H](c3ccccc3)[C@H](c3ccccc3)N2[C@H](c2ccc(OCCOC(=O)[C@@H]3C[C@@H]4C(=O)N[C@@H](Cc5ccccc5)C(=O)N4[C@@H]3c3ccc(O)cc3)cc2)[C@@]12C(=O)Nc1ccc(I)cc12", 0.251),
    ("CC(=O)NCCCC[C@@H]1NC(=O)[C@@H]2C[C@H](C(=O)NCCCCCCNC(=O)CS)[C@H](c3cccc(OCCO)c3)N2C1=O", -0.0996),
    ("COc1ccc(C(=O)Nc2ccc(CN3C(=O)[C@@]4(O[C@@H](CC(=O)N5CCC[C@H]5CO)[C@H]([Si](C)(C)c5ccc(OC)cc5)[C@H]4C)c4ccccc43)cc2)cc1", -0.0219),
    ("COc1ccc(CCN2C(=O)[C@@]3(Cc4ccccc42)c2ccccc2C(=O)N(Cc2ccccc2C(F)(F)F)[C@H]3c2ccc(CO)cc2)cc1", -0.0718),
]

q: Any idea what composite z-score was measured for CC(C)C(CO)N1C(=O)[C@@H]2[C@H]3C(=O)OCC=C[C@H]3OC23C=CCN(C(C)C)C(=O)[C@@H]13 (stereo not given in full) ?
a: -0.149

q: Any idea what composite z-score was measured for Cc1ccc(S[C@]2(C(=O)NCCN3CCOCC3)CC(=O)N(Cc3ccccc3)[C@@H]2c2ccc(CO)cc2I)cc1 ?
a: -0.165

q: Any idea what composite z-score was measured for CCCC=C(CCC)[C@@H](NS(=O)(=O)c1cccs1)c1ccc(C(=O)OC)cc1 ?
a: 0.17

q: Any idea what composite z-score was measured for C=CC[C@]12N=C(c3ccc(OCCCO)cc3)O[C@H]1c1ccccc1N(Cc1ccccc1)C2=O ?
a: 0.0225

q: Any idea what composite z-score was measured for CC(C)(C)OC(=O)CC[C@]1(C(=O)O)N=C(c2ccc(OCCCO)cc2)O[C@H]1c1ccccc1N=[N+]=[N-] ?
a: 0.786

q: Any idea what composite z-score was measured for CC(=O)N1Cc2ccccc2C[C@@]2(COC(c3ccc(OCCCO)cc3)=N2)C1=O ?
a: 0.286

q: Any idea what composite z-score was measured for CC(C)C[C@@H]1NC(=O)[C@H]2C[C@@H](C(=O)NCCCCCCN(C)C)[C@@H](c3ccc(O)cc3)N2C1=O ?
a: 0.0293

q: Any idea what composite z-score was measured for O=C1OCCC/C=C\[C@H]2OC34C=CCN(CCN5CCOCC5)C(=O)[C@H]3N(CCCO)C(=O)[C@@H]4C12 (stereo not given in full) ?
a: -0.182

q: Any idea what composite z-score was measured for C=C(CCCC)C(=O)CC[C@H](OC(C)=O)c1cccc(OCCO)c1 ?
a: -0.224

q: Any idea what composite z-score was measured for CC1CC/C=C\[C@H]2OC34C=CCN(c5ccc(Cl)cc5)C(=O)[C@H]3N(CCO)C(=O)[C@]4(C)C2C(=O)O1 (stereo not given in full) ?
a: -0.152

q: Any idea what composite z-score was measured for COCCOC(=O)N1C(=O)[C@@]2(c3cc(C#CCCO)ccc31)[C@H](C(=O)N1CCc3cc(OC)c(OC)cc3C1)[C@H]1C(=O)O[C@H](c3ccccc3)[C@H](c3ccccc3)N1[C@@H]2c1ccc(O)cc1 ?
a: 0.0893

q: Any idea what composite z-score was measured for [N-]=[N+]=NCc1ccccc1C[C@]1(C(=O)N2CCOCC2)N=C(c2ccc(OCCCO)cc2)O[C@H]1c1ccccc1N=[N+]=[N-] ?
a: 0.311

q: Any idea what composite z-score was measured for COCC(=C=CC[C@@H](O)c1ccccc1OCCO)C[C@@H](O)c1cc(Cl)cc(Cl)c1O ?
a: 0.129

q: Any idea what composite z-score was measured for O=C1OCCC=C[C@H]2OC34C=CCN(CCN5CCOCC5)C(=O)[C@H]3N(CCCCCCO)C(=O)[C@@H]4C12 (stereo not given in full) ?
a: -0.274

q: Any idea what composite z-score was measured for CN1C(=O)C2C=CC(C(O)Cc3ccccc3)N(Nc3ccccc3)C2C1=O (stereo not given) ?
a: -0.0311

q: Any idea what composite z-score was measured for CCCCCN1CC=CC23O[C@@H]4/C=C\CCCOC(=O)C4[C@H]2C(=O)N(CCCO)[C@@H]3C1=O (stereo not given in full) ?
a: -0.095

q: Any idea what composite z-score was measured for COc1cc(CO)cc(I)c1O[C@H]1C=C(C(=O)NCCO)C[C@@H](N(CCN2CCOCC2)C(=O)C2CCOC2)[C@@H]1O (stereo not given in full) ?
a: 0.189

---

target: Carbonic anhydrase 2 (Homo sapiens); test: CAII small-molecule binders, profiling panel, biochemical, small-molecule microarray, Alexa647-labelled CAII (AID 1122); conditions: CAII-A647 binding fluorescence, higher = more signal
Quick list: composite z-score per entry.
Lab note: write the figure by itself, no unit.

// solved cases for composite z-score follow
# compound, quantitative_result
data = [
    ("CN(C)CCCC[C@@H]1NC(=O)[C@H]2C[C@@H](C(=O)NCCCCCNC(=O)CS)[C@@H](c3cccc(OCCO)c3)N2C1=O", 0.661),
    ("COCCOC(=O)N1C(=O)[C@@]2(c3cc(C#CC4(O)CCCCCC4)ccc31)[C@H](c1ccc(O)cc1)N1[C@H](c3ccccc3)[C@H](c3ccccc3)OC(=O)[C@H]1[C@@H]2C(=O)Nc1nc2ccccc2s1", 0.362),
    ("O=C(NCc1ccccc1)[C@@]1(Cc2ccccc2)N=C(c2ccc(OCCCO)cc2)O[C@H]1c1ccccc1", 0.617),
]

q: Notebook entry, Carbonic anhydrase 2 (Homo sapiens) assay: composite z-score of C=C(CCCC)C(=O)CC[C@H](OC(=O)c1cccnc1)c1ccccc1OCCO = ?
a: 0.268

q: Notebook entry, Carbonic anhydrase 2 (Homo sapiens) assay: composite z-score of COCCOC(=O)N1C(=O)[C@@]2(c3cc(C#Cc4ccc(OC)cc4)ccc31)[C@H](c1ccccc1OCCO)N1[C@H](c3ccccc3)[C@H](c3ccccc3)OC(=O)[C@H]1[C@@H]2C(=O)N1CCN(c2ncccn2)CC1 = ?
a: 0.336

q: Notebook entry, Carbonic anhydrase 2 (Homo sapiens) assay: composite z-score of CCCCCN1CC=CC23O[C@@H]4/C=C\CCCOC(=O)C4[C@H]2C(=O)N(CCCO)[C@@H]3C1=O (some centres not stated) = ?
a: 0.689

q: Notebook entry, Carbonic anhydrase 2 (Homo sapiens) assay: composite z-score of CN(C)C(=O)[C@@]1(Cc2ccccc2)N=C(c2ccc(OCCCO)cc2)O[C@H]1c1ccccc1N=[N+]=[N-] = ?
a: 0.765

---

test system: Chordin-like protein 2 (CHRDL2); test: CHRDL2 small-molecule binders, primary screen, biochemical, small-molecule microarray, 635 nm fluorescence (AID 1126); details: small-molecule microarray binding, fluorescence 635 nm; higher = more signal;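 also: printed compound slides probed with Chrdl2 protein at 4 µg/mL for 1 h at 4 C; score merges 667 nm emission intensity with signal to noise over three replicate slides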
Mark y for reported composite z-score of 0.1 or greater; mark n for anything smaller.

# compound, discrete_label
rows = [
    ("COc1ccc(C(=O)O[C@H]2CC[C@]3(C)C4=C(CCC3C2(C)C)[C@]2(C)CC[C@H]([C@H](C)CCCC(C)C)[C@@]2(C)CC4)cc1 (some centres not stated)", "y"),
    ("CCCCC=C[C@@H](NC(=O)Oc1cccc(C(F)(F)F)c1)c1ccccc1", "n"),
    ("CC(C)(C)OC(=O)CC[C@]1(C(=O)O)N=C(c2ccc(OCCCO)cc2)O[C@H]1c1ccccc1N=[N+]=[N-]", "n"),
    ("CN(C)C(=O)[C@@]1(Cc2ccccc2)N=C(c2ccc(OCCCO)cc2)O[C@H]1c1ccccc1N=[N+]=[N-]", "y"),
    ("O=C(NCC(F)(F)F)[C@@H]1c2ccccc2C(=O)N(C2CCCCC2)[C@H]1c1ccc(CO)cc1", "n"),
]

q: Confirm if composite z-score reported for the compound C=CCN1C(=O)[C@]2(O[C@H](CCO)[C@@H]([Si](C)(C)c3ccc(OC)cc3)[C@@H]2C)c2cc(N3CCCCC3=O)ccc21 is 0.1 or above.
a: y

q: Confirm if composite z-score reported for the compound CN(C)C(=O)[C@]1(Cc2ccccc2CN=[N+]=[N-])N=C(c2ccc(OCCCO)cc2)O[C@@H]1c1ccccc1CN=[N+]=[N-] is 0.1 or above.
a: n

---

target: Follistatin-related protein 3 (Homo sapiens) (UniProt O95633); assay: FSTL3 binders on small-molecule microarrays, primary screen, biochemical, small-molecule microarray, 635 nm fluorescence (AID 1105); conditions: FSTL3 binding, higher = more signal;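 also: score merges emission near 667 nm and signal to noise per printed spot across three slides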
Sequence (O95633 whole entry, looked up): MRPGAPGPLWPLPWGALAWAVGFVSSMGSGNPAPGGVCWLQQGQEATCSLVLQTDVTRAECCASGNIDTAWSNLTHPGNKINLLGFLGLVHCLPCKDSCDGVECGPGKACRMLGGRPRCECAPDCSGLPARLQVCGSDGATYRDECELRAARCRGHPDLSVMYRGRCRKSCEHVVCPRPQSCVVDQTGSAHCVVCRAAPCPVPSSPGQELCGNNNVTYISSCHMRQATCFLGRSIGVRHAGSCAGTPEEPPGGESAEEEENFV
property_measured: composite z-score

# compound, result
measured = [
    ("O=C(NCc1ccccc1)[C@@]1(Cc2ccccc2)N=C(c2ccc(OCCCO)cc2)O[C@H]1c1ccccc1", 0.448),
    ("CCOc1cc(C(O)C2C=CC3C(=O)N(c4ccccc4)C(=O)C3N2Nc2ccccc2)ccc1O (centres undefined)", 0.128),
    ("Cc1ccc(S[C@]2(C(=O)NCCN3CCOCC3)CC(=O)N(Cc3ccccc3)[C@@H]2c2ccc(CO)cc2I)cc1", -1.24),
]

q: Notebook entry, Follistatin-related protein 3 (Homo sapiens) (UniProt O95633) assay: composite z-score of COc1ccc(C(O)C2C=CC3C(=O)NC(=O)C3N2Nc2ccccn2)c2ccccc12 (centres undefined) = ?
a: 0.16
